Reported phytotoxicity rating CHEAL values for a set of molecules
system: lambsquarters (Chenopodium album, CHEAL); assay: Post-emerge test, greenhouse herbicide activity screening; type: in vivo; conditions: post-emerge, 250 g ai/ha, 14 days after application, rating scale 0-100
The response must contain the number and no unit.

• COc1c(Cl)cc(F)c(-n2c(=O)cc(C(F)(F)F)n(C)c2=O)c1NC(=O)OCc1ccc(Cl)c(Cl)c1 [4-32] = 100

State the recorded phytotoxicity rating CHEAL for this entry: COc1c(Cl)cc(F)c(-n2c(=O)cc(C(F)(F)F)n(C)c2=O)c1NC(=O)OCc1ccc(C)c(C)c1 [4-26]
100

* * *

Reported DIGSA phytotoxicity rating values for a set of molecules
test system: large crabgrass (Digitaria sanguinalis, DIGSA); assay: Post-emerge test, greenhouse herbicide activity screening; type: in vivo; settings: post-emerge, 250 g ai/ha, 14 days after application, rating scale 0-100
The response must contain the number and no unit.

- CCOC(=O)C(C)Oc1ccc(-n2c(=O)cc(C(F)(F)F)n(C)c2=O)c(NC(=O)c2ccc3ccccc3c2)c1 (stereo not shown) [2-146]: 0

Identify the measured DIGSA phytotoxicity rating of COc1c(C#N)cc(F)c(-n2c(=O)cc(C(F)(F)F)n(C)c2=O)c1NC(=O)c1ccc2ccccc2c1 [2-181] for large crabgrass (Digitaria sanguinalis, DIGSA).
70

Please give the result for COc1c(Cl)cc(F)c(-n2c(=O)cc(C(F)(F)F)n(C)c2=O)c1NC(=O)CCc1ccccc1C [2-129] too.
70

Please give the result for COc1c(Cl)cc(F)c(-n2c(=O)cc(C(F)(F)F)n(N)c2=O)c1NC(=O)COCc1ccccc1 [2-187] too.
40

* * *

test system: field corn (Zea mays L., var. Dekalb 535, CORN); assay: Post-emerge test, crop safety; assay type: in vivo; details: post-emerge, 250 g ai/ha, crop damage rating 0-100 at 14 days after application
Post-emerge Herbicidal Activity CORN below 30 gives F; Post-emerge Herbicidal Activity CORN at or above it gives T.

Answered cases to consult:
* Nc1c(O)c(Cl)cc(F)c1N1C(=O)C2CCCCN2C1=S (single isomer, unassigned) [12-3] | F
* C#CCOc1c(Cl)cc(F)c(-n2nnn(CCCF)c2=O)c1N | F

Reported Post-emerge Herbicidal Activity CORN reaches at least 30 for COc1c(Cl)cc(F)c(N2C(=O)c3ccccc3C2=O)c1NC(=O)c1ccc(F)cc1F ?
F

Please give the result for Cc1cc(C)c(COC(=O)Nc2c(C)c(Cl)cc(F)c2-n2c(=O)cc(C(F)(F)F)n(C)c2=O)c(C)c1 too.
T

Please give the result for Cc1c(Cl)cc(F)c(-n2c(=O)cc(C(F)(F)F)n(C)c2=O)c1NC(=O)OCc1ccc([N+](=O)[O-])cc1 too.
T

Please give the result for C=Cc1ccc(C(=O)Nc2c(OC)c(Cl)cc(F)c2N2C(=O)C3=C(CCCC3)C2=O)cc1 too.
F

Please give the result for O=C(Nc1cc(Cl)ccc1-n1c(=O)n2n(c1=O)CCCC2)c1ccc2ccccc2c1 too.
F

Please give the result for Cc1c(Cl)cc(F)c(-n2c(=O)cc(C(F)(F)F)n(C)c2=O)c1NC(=O)OCc1ccco1 too.
T

Please give the result for COc1c(Cl)cc(F)c(-n2c(=O)n3n(c2=O)CCCC3)c1NC(=O)c1ccc2ccccc2c1 too.
F

Please give the result for CCC(=O)Nc1c(Cl)cc(Cl)c(-n2nc(C)n(C(F)F)c2=O)c1N too.
F

Please give the result for COc1c(Cl)cc(F)c(-n2nnn(CCCF)c2=O)c1NC(=O)COCc1ccccc1 too.
T
